Reported melting point values for a set of molecules
Response body: numeric value in °C, unit text excluded.

[[record]]
smiles_text = "COc1nc(C(F)(F)F)cc(=O)n1-c1cc(C(=O)N(C)OC)c(Cl)cc1F"
property_name = "melting point"
measured_result = 119


Now examine the next entry.
IN: Look up melting point for this molecule: Nc1ncc(-c2noc(-c3cnn4c(C(F)(F)F)cc(-c5ccc(C(F)(F)F)cc5)nc34)n2)cn1
OUT: 254

----------
melting point: recorded values

[[record]]
molecule = "CSc1cc(C(C)(C)C)c(O)c(C(=O)Nc2ccc(S(=O)(=O)C(F)(F)F)cc2Cl)c1C"
property_name = "melting point"
measured_result = "156 °C"


IN: Which melting point is listed for COc1ccc2occ(CCN3CCN(c4cc(Cl)cc5cccnc45)CC3)c2c1 ?
OUT: 72 °C

IN: For CCOC(=O)CCCOc1ccc(-c2ccc(OCC)cc2)cc1C=O , what is its reported melting point?
OUT: 69 to 70 °C

IN: Please report the recorded melting point for CCOC(=O)c1cn2c3c(c(-c4cc(C)nc(C)c4)c(F)cc3c1=O)OC[C@@H]2C .
OUT: 267 to 273 °C

IN: Which melting point is listed for COC(=O)C(NS(=O)(=O)c1ccc(-c2ccc(NC(=O)c3cc4c(OC(C)C)cccc4o3)cc2)cc1)C(C)C (centres undefined) ?
OUT: 226 to 229 °C

IN: melting point lookup needed for Cc1nccn1-c1ccc(OCCO)cc1 , thanks.
OUT: 125 to 127 °C

IN: melting point lookup needed for CO[C@@H]1CN(c2ccc3c(=O)c(C(=O)O)cn(-c4nccs4)c3n2)C[C@H]1NCC(=O)OC(C)(C)C (relative stereo) , thanks.
OUT: 185 to 188 °C

IN: So what's the measured melting point for this one? Cc1oc(-c2ccccc2)nc1CCOc1ccc(CCl)c2sccc12
OUT: 144 to 145 °C

IN: What measured melting point goes with Cc1noc(NS(=O)(=O)c2ccc(-c3cccs3)s2)c1Br ?
OUT: 210 °C

----------
Some compounds, each annotated with its measured melting point.

Reference set, count: 5
[[record]]
compound = "O=[N+]([O-])c1cccc(C(Cl)=NN=C(Cl)c2ccc(C(F)(F)F)cc2)c1"
property_name = "melting point"
measured_result = "78 to 80 °C"

[[record]]
compound = "CCCc1c(OCCCOc2ccccc2)ccc2c1OC(CCC(=O)OC)(CCC(=O)OC)CC2=O"
property_name = "melting point"
measured_result = "100 °C"

[[record]]
compound = "Cc1cc2c(-c3cccc(C(=O)O)c3)c(CC(=O)Nc3ccc(Cl)cc3C(F)(F)F)c(=O)oc2cc1Cl"
property_name = "melting point"
measured_result = "270 to 272 °C"

[[record]]
compound = "CCCCn1c(=O)c(NC(=O)Nc2cc(CO)ccc2C(C)(C)C)c(-c2cccc(OCc3cccnc3)c2)c2cccnc21"
property_name = "melting point"
measured_result = "149 to 150 °C"

[[record]]
compound = "Cc1cccc(Sc2ccc3c(c2)CCC2N(C)C(=O)CCC32C)c1 (single isomer, unassigned; (+))"
property_name = "melting point"
measured_result = "103 to 104 °C"


Next compound, please.
IN: Could you share which melting point value was measured for Cc1ccc(S(=O)(=O)N2C[C@@H](Cl)C[C@@H]2CCl)cc1 ?
OUT: 103 to 105 °C

----------
PROPERTY_NAME: melting point

[[record]]
compound = "COc1ccc(-c2nccc(C(N)=O)c2N)cc1"
measured_result = "179 to 181 °C"

[[record]]
compound = "COc1c(Cl)ccc(-c2cc(N)c(Cl)c(C(=O)NOC(C)C)n2)c1F"
measured_result = "190 to 193 °C"

[[record]]
compound = "OCCCc1ccc(OCC2CCCO2)cc1Oc1ncc(C(F)(F)F)cc1Cl (stereo unspecified)"
measured_result = "91.3 to 93.6 °C"


IN: Param item = O=c1c2ccc(F)cc2ncn1Cc1ccccc1 ; retrieve measured melting point.
OUT: 110 to 111 °C

IN: What does the data say about its melting point? Entry: CC(C)Cn1c(=O)n(C)c(=O)c2cc(Cc3ccccc3)sc21
OUT: 72 to 73 °C

IN: I have this compound here, CON=C(C)c1cc(C[C@H](NC(=O)c2c(Cl)cccc2Cl)C(=O)O)ccc1-c1ccccc1OC , and I need its recorded melting point.
OUT: 107 °C

----------
PROPERTY_NAME: melting point

Known results for molecules:
[[record]]
molecule = "O=C1NC(=O)C(Sc2ccc(F)cc2)S1 (stereo unspecified)"
property_name = "melting point"
measured_result = "99 to 100 °C"

[[record]]
molecule = "COc1cc(C)nc(NC(=O)NS(=O)(=O)c2ccccc2C(=O)Nc2nccs2)n1"
property_name = "melting point"
measured_result = "185 to 187 °C"

[[record]]
molecule = "Cc1nc(N=CN(C)C)nc(N(C)C)n1"
property_name = "melting point"
measured_result = "61 °C"

[[record]]
molecule = "Clc1cc(CCc2ccccn2)c2oc(-c3ccc4[nH]nnc4c3)nc2c1"
property_name = "melting point"
measured_result = "242 to 244 °C"

[[record]]
molecule = "NS(=O)(=O)Oc1ccc(Cl)c(Cl)c1"
property_name = "melting point"
measured_result = "121 to 123 °C"


IN: # lookup: melting point of CCc1ccc(Cc2c(OCc3ccccc3)n[nH]c2C)cc1
OUT: 80 to 83 °C

IN: Value lookup for melting point; key = COC(=O)c1ccccc1C1=NC(C)C(=S)N1 (stereo unspecified)
OUT: 134 to 138 °C

IN: Quick check: melting point of CCCCCCC(C)(C)c1ccc(C2=CC(O)CCC2)c(O)c1 (stereo unspecified) ?
OUT: 87 to 88 °C

IN: Given the entry CCOC(=O)c1c(C)nc(OCC)c2nnn(CC)c12 , report its measured melting point.
OUT: 56 to 58 °C

IN: # get_value(readout='melting point', item= CC(C(=O)O)c1ccc2nc(N)[nH]c2c1 (stereo unspecified) )
OUT: 300 °C

IN: Form field: reported melting point of c1ccc(NC2CCc3ccccc3C2)cc1 (stereo unspecified)
OUT: 193 to 196 °C

IN: melting point lookup needed for CS(=O)c1ccc(-c2cn3c(c2-c2ccccc2)CCC3)cc1 (stereo unspecified) , thanks.
OUT: 67 to 68 °C

IN: # lookup: melting point of CO/C=C(/C(=O)OC)c1ccccc1COc1cccc(Cl)n1
OUT: 91 to 92 °C

IN: Consider the molecule COC(=O)N(C)NC(=O)Oc1ccccc1 and give its measured melting point.
OUT: 86 °C

IN: // melting point lookup, key: c1ccc(OCCNc2nc(Nc3cc(C4CC4)n[nH]3)c3ccccc3n2)cc1
OUT: 203 °C

IN: Record request: melting point value, item CCOC(=O)C1CCN(Cc2c[nH]c3cccc(F)c23)CC1
OUT: 96 to 105 °C

IN: // melting point lookup, key: C#Cc1cc(Cl)cc2nc(Cc3cc(C(C)(C)C)c(O)c(C(C)(C)C)c3)oc12
OUT: 152 to 155 °C

IN: Quick one: melting point of Cc1ccc(C(=O)Nc2c(NC(=O)CN3CCN(c4ncccn4)CC3)ccc3c2C(=O)c2ccccc2C3=O)cc1 ?
OUT: 267 to 268 °C

IN: Which value of melting point has been reported for CC[C@H]1CN(c2ccc(-c3ccnc(Nc4cc(OC)c(OC)c(OC)c4)n3)cn2)CCN1 in the records?
OUT: 82 to 83 °C

IN: // lookup melting point for CC(C)(C)OC(=O)c1ncn2c1[C@@H]1CCCN1C(=O)c1ccccc1-2
OUT: 237 to 238 °C

IN: Field request: melting point | item: CC(C)(C)OC(=O)NCc1ccc([N+](=O)[O-])cc1
OUT: 110 to 111 °C

----------
Non-standard residues stand in square brackets, D forms with d. Residues, ends and D or L forms follow the SMILES beside them. ξ: configuration not given here. *: point of attachment. ξPhe(4-F) = NC(Cc1ccc(F)cc1)C(=O)O; Boc = CC(C)(C)OC(=O)*
This listing pairs molecules with measured melting point.

Example entries and their recorded answers appear below.
[[record]]
molecule = "CCNC(=O)C(Cc1ccc(F)cc1)NC(=O)CNC(=O)OC(C)(C)C (stereo not drawn) (Boc-Gly-[ξPhe(4-F)]-NHEt)"
property_name = "melting point"
measured_result = "181 to 182 °C"

[[record]]
molecule = "Cc1c2c(nc3ccccc13)CCN(C(=O)Oc1ccccc1)CC2"
property_name = "melting point"
measured_result = "150 °C"

[[record]]
molecule = "O=C(NC1CCCCC1)c1ccn2nc(-c3ccccc3)c(-c3cccc(Cl)c3)c2n1"
property_name = "melting point"
measured_result = "160 to 161 °C"


IN: // lookup melting point for COc1cc2cc(C(=O)NO)sc2cc1OC
OUT: 179 to 180 °C

IN: Entry Cc1cccc(C2=CCN(CCCn3c(=O)[nH]c4cccc(C)c4c3=O)CC2)c1 has what melting point?
OUT: 155 to 160 °C

IN: # input molecule: CCOc1ccccc1-c1nc2c(C(N)=O)ccnc2c(=O)[nH]1 ; wanted: its melting point
OUT: 295 to 297 °C

IN: Looking for the measured melting point of CCCOc1ccc(-c2scc(-c3ccccc3OC(F)(F)F)c2CC(=O)N=C(N)N)cc1 , can you help?
OUT: 90 to 92 °C

IN: Endpoint output: melting point of COc1ccc(C(=O)Nc2ccccc2)cc1NCc1cccs1 . Value?
OUT: 195 to 197 °C

// data source = a melting point compilation (Tetko et al.; mined from patent text by program, amines drawn as free bases though some values may be those of a salt)
